# Test system: vasopressor response of angiotensin II
# run-description: AII Challenge: antagonism of angiotensin II vasopressor response;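 further: post-dose Angiotensin II-evoked rise in systolic blood pressure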
# Format: in vivo
# test-parameters: 1 mg/kg i.v.; AII 0.1 mcg/kg IV; 90 min post dose
# Description: Conscious Male Okamoto-Aoki SHR, 16-20 weeks old, weighing approximately 330 g are purchased from Charles River Labs (Wilmington, Mass.). Conscious rats are restrained in a supine position with elastic tape. The area at the base of the tail is locally anesthetized by subcutaneous infiltration with 2% procaine. […] The cannula is attached to a Statham P23 Db pressure transducer, and pulsatile blood pressure is recorded to 10-15 minutes with a Gould Brush recorder. […]
reported-metric: Response Average Change (mmHg)
Quick reminder: number only, in mmHg, skip the unit.

compound="CCCCc1nc2ccc([C@@]3(C)C[C@@H]4CCC(C)(C)N4O3)cc2c(=O)n1Cc1ccc(-c2ccccc2-c2nnn[nH]2)cc1 (relative stereo)" system_tested="vasopressor response of angiotensin II" reported_metric="Response Average Change" value_units=mmHg reported=7.5
compound="CCCCc1nc2ccc([C@@]3(c4ccccc4)C[C@@H]4CCCN4O3)cc2c(=O)n1Cc1ccc(-c2ccccc2-c2nnn[nH]2)cc1 (relative stereo)" system_tested="vasopressor response of angiotensin II" reported_metric="Response Average Change" value_units=mmHg reported=30.5

Okay, now this compound:
**Q:** Missing value: Response Average Change, vasopressor response of angiotensin II, entry CCCCc1nc2ccc([C@@]3(CC)C[C@@H]4CCCN4O3)cc2c(=O)n1Cc1ccc(-c2ccccc2-c2nnn[nH]2)cc1 (relative stereo) . Fill in?
**A:** 20

---

Each entry below carries its recorded Response Average Change.
# Test system: vasopressor response of angiotensin II
# run-description: AII Challenge: antagonism of angiotensin II vasopressor response;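 further: post-dose Angiotensin II-evoked rise in systolic blood pressure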
# Format: in vivo
# test-parameters: 3 mg/kg I.V.; AII 0.1 mcg/kg IV; 240 min post dose

Here's what some known entries look like.
compound="CCCCc1nc2ccc([C@@]3(C)C[C@@H]4CCCN4O3)cc2c(=O)n1Cc1ccc(-c2ccccc2-c2nnn[nH]2)cc1 (relative stereo) [Example 58]" system_tested="vasopressor response of angiotensin II" reported="4 mmHg"
compound="CCCCc1nc2ccc([C@]3(C)C[C@@H]4CCCN4O3)cc2c(=O)n1Cc1ccc(-c2ccccc2-c2nnn[nH]2)cc1 (relative stereo) [Example 59]" system_tested="vasopressor response of angiotensin II" reported="27.5 mmHg"
compound="CCCCc1nc2ccc([C@@H]3C[C@H]4CCCCN4O3)cc2c(=O)n1Cc1ccc(-c2ccccc2-c2nnn[nH]2)cc1 (relative stereo) [Example 60]" system_tested="vasopressor response of angiotensin II" reported="18.5 mmHg"

**Q:** I have this compound here, CCCCc1nc2ccc([C@@H]3C[C@H]4c5ccccc5CCN4O3)cc2c(=O)n1Cc1ccc(-c2ccccc2-c2nnn[nH]2)cc1 (relative stereo) [Example 63] , and I need its recorded Response Average Change.
**A:** 23 mmHg

**Q:** Give the measured Response Average Change of CCCCc1nc2ccc([C@@]3(C)C[C@@H]4CCCCN4O3)cc2c(=O)n1Cc1ccc(-c2ccccc2-c2nnn[nH]2)cc1 (relative stereo) [Example 67] .
**A:** 11 mmHg

**Q:** Given the compound CCCCc1nc2ccc([C@]3(C)C[C@@H]4CCC(C)(C)N4O3)cc2c(=O)n1Cc1ccc(-c2ccccc2-c2nnn[nH]2)cc1 (relative stereo) [Example 69] , what is its reported Response Average Change?
**A:** 7.5 mmHg

**Q:** I would be grateful if you could share the reported Response Average Change for CCCCc1nc2ccc([C@]3(C)C[C@@H]4CCCCN4O3)cc2c(=O)n1Cc1ccc(-c2ccccc2-c2nnn[nH]2)cc1 (relative stereo) [Example 68] .
**A:** 17.5 mmHg

**Q:** What measured Response Average Change goes with CCCCc1nc2ccc(C3(C)CC4c5ccccc5CCN4O3)cc2c(=O)n1Cc1ccc(-c2ccccc2-c2nnn[nH]2)cc1 (centres unmarked) [Example 64] ?
**A:** 12.5 mmHg
